Quick list: log10 IC50 per entry.
tested on: Human immunodeficiency virus 1; experiment: Antiviral activity against HIV1 K103N mutant using HeLa MAGI assay; assay type: functional, organism-based; conditions: Human immunodeficiency virus 1, K103N
measurement_type: log10 IC50 (log10 of the value in nM)

[[record]]
compound = "Cc1cc(C#N)cc(C(=O)c2cc(Cl)ccc2OCC(=O)Nc2ncc(S(N)(=O)=O)cc2C)c1"
number = 1.97

[[record]]
compound = "Cc1cc(S(=O)(=O)N(C)C)ccc1NC(=O)COc1ccc(Cl)cc1C(=O)c1cc(F)cc(C(F)(F)F)c1"
number = 0.78

[[record]]
compound = "Cc1ccccc1NC(=O)COc1ccc(Cl)cc1C(=O)c1cc(F)cc(F)c1"
number = 1.58

[[record]]
compound = "Cc1cc(S(N)(=O)=O)ccc1NC(=O)COc1ccc(Cl)cc1C(=O)c1cc(Cl)cc(C#N)c1"
number = 0.00

[[record]]
compound = "O=C1Nc2ccc(Cl)cc2C(C#CC2CC2)(C(F)(F)F)O1 (single isomer, unassigned)"
number = 1.40

[[record]]
compound = "O=C(COc1ccc(Cl)cc1C(=O)c1cc(F)cc(F)c1)Nc1ccc(Cl)nc1"
number = 1.83

[[record]]
compound = "Cc1cc(N2CC[S+]([O-])CC2)ccc1NC(=O)COc1ccc(Cl)cc1C(=O)c1ccccc1"
number = 2.00

[[record]]
compound = "CNS(=O)(=O)c1ccc(NC(=O)COc2ccc(Cl)cc2C(=O)c2cc(F)cc(C(F)(F)F)c2)c(C)c1"
number = 0.30

[[record]]
compound = "Cc1ccnc2c1NC(=O)c1cccnc1N2C1CC1"
number = 3.76

[[record]]
compound = "Cc1cc(OCCCS(N)(=O)=O)ccc1NC(=O)COc1ccc(Cl)cc1C(=O)c1cc(F)cc(C(F)(F)F)c1"
number = 0.60

[[record]]
compound = "Cc1cc(S(N)(=O)=O)ccc1NC(=O)COc1ccc(Cl)cc1C(=O)c1cc(N)cc(C#N)c1"
number = 2.15

[[record]]
compound = "COc1cc(OC)cc(C(=O)c2cc(Cl)ccc2OCC(=O)Nc2ccc(S(N)(=O)=O)cc2C)c1"
number = 2.57

[[record]]
compound = "Cc1nc(S(N)(=O)=O)ccc1NC(=O)COc1ccc(Cl)cc1C(=O)c1cc(Cl)cc(C#N)c1"
number = 0.48

[[record]]
compound = "Cc1cc(S(N)(=O)=O)ccc1NC(=O)COc1ccc(Cl)cc1C(=O)c1cccc(C#N)c1"
number = 0.18

[[record]]
compound = "Cc1cc(S(N)(=O)=O)ccc1NC(=O)COc1ccc(Cl)cc1C(=O)c1cc(F)cc(C(F)(F)F)c1"
number = 0.30

[[record]]
compound = "Cc1cc(N2CC[S+]([O-])CC2)ccc1NC(=O)COc1ccc(Cl)cc1C(=O)c1cccc(C#N)c1"
number = 0.70

[[record]]
compound = "Cc1cc(S(N)(=O)=O)ncc1NC(=O)COc1ccc(Cl)cc1C(=O)c1cc(Cl)cc(C#N)c1"
number = 0.70

[[record]]
compound = "Cc1cc(C#N)cc(C(=O)c2cc(Cl)ccc2OCC(=O)Nc2ccc(S(N)(=O)=O)cc2C)c1"
number = -0.05


---

tested on: Human immunodeficiency virus 1; assay: Antiviral activity against HIV1 K103N mutant using HeLa MAGI assay; type: functional, organism-based; conditions: Human immunodeficiency virus 1, K103N
measurement_type: log10 IC50 (log10 of the value in nM)

[[record]]
record_smiles = "Cc1cc(N2CC[S+]([O-])CC2)ccc1NC(=O)COc1ccc(Cl)cc1C(=O)c1ccc(C#N)cc1"
number = 1.64

[[record]]
record_smiles = "Cc1cc(S(N)(=O)=O)ccc1NC(=O)COc1ccc(Cl)cc1C(=O)c1cc(C#N)cc(C(F)(F)F)c1"
number = 0.04

[[record]]
record_smiles = "CCN(CC)CCCNc1ccc(NC(=O)COc2ccc(Cl)cc2C(=O)c2cc(F)cc(F)c2)c(C)c1"
number = 1.98

[[record]]
record_smiles = "Cc1cc(NC(=O)CCN2CCOCC2)ccc1NC(=O)COc1ccc(Cl)cc1C(=O)c1cc(F)cc(F)c1"
number = 0.95

[[record]]
record_smiles = "Cc1cc(C#N)cc(C(=O)c2cc(Cl)ccc2OCC(=O)Nc2cnc(S(N)(=O)=O)cc2C)c1"
number = 0.85

[[record]]
record_smiles = "Cc1cc(Cl)cc(C(=O)c2cc(Cl)ccc2OCC(=O)Nc2ccc(S(N)(=O)=O)cc2C)c1"
number = 0.56

